All figures here come from patent US20240209086A1.

experimental system: canine CD3 on canine T cells (canine PBMC) (canine, UniProt P27597 22-202)
Sequence (P27597 22-202 limits assumed, chain 1 of 3): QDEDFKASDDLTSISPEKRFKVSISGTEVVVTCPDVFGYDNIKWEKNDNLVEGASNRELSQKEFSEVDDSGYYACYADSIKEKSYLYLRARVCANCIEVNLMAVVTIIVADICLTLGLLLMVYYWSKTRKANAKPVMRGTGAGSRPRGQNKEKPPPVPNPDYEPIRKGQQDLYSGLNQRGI
Sequence (chain, as listed by the source limits assumed, chain 2 of 3): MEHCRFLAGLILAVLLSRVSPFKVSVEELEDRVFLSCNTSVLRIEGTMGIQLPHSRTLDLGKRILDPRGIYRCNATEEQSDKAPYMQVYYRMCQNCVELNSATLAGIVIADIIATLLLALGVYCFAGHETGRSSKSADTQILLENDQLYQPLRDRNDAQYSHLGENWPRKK
Sequence (chain, as listed by the source limits assumed, chain 3 of 3): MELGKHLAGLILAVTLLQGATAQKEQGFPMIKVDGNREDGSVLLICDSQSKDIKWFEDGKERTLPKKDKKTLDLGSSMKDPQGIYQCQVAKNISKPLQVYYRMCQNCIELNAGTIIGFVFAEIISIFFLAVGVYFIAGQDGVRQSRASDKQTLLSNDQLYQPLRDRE
run description: cell-based or functional assay
Entries annotated with measured CD25 Activation, Day 9, PB
I'd appreciate a reply containing only the number, no unit.

Illustrative cases are given below, each with its answer.
PMX191 (monospecific anti-canine CD3, canine IgG-B effector function deficient Fc) (antibody, V domains shown) VH: EVQLVESGGDLVKPAGSLRLSCVASGFTFSDYSMSWVRQGPEKGLQLVAGMNSDGSTTYYTDAVRGRFTISRDNAKNTMYLQMNSLRDEDTAIYYCAKGAAAPDYWGQGTLVTVSS VL: SYELTQPPSVNVTLRETAHITCGGDRIGSKYVQWIQQIPGQAPVVIIYKDNNRPTGIPERFSGANSGNTATLTISGALAEDEADYYCQVGDNYTWVFGEGTQLTVL	14.9
PMX196 (monospecific anti-canine CD3, canine IgG-B effector function deficient Fc) (antibody, V domains shown) VH: ELTLQESGPGLVKPSQTLSLTCVVSGGSVTSSYYWNWIRQRPGRGLEWMGYWTGSTIYNPAFQGRISITADTAKNQFSLQLSSMTTEDTAVYFCVRERRMAFGSWGQGTLVIVSS VL: SYVLTQLPSKSVTLKQPAHITCGGDNIGRKSVHWYQQKLGQAPVLIISFDNNRPTGIPERFSGANSGNTATLTISGALAEDEADYYCQVWDSSAKASVFGGGTHLTVL	17.1

Now take the following binder into account.
For the binder shown here, PMX197 (monospecific anti-canine CD3, canine IgG-B effector function deficient Fc) (antibody, V domains shown) VH: ELTLQESGPGLVKPSQTLSLTCLVSGGSVTRSYYWNWIRQRPGRGLEWMGYWTGSTNYNPAFQGRISIIPDTAKNQFSLQLTSMTTDDTAIYFCAREGGRTLGAFADWGQGTLVTVSS VL: SYVLTQLPSKNVTLKQPAHITCGGDKIGSKNVHWYQQKLGQAPVLIIYYDSSRPTGIPERFSGANSGNTATLTISGALAEDEADYYCQVWDSSAKASVFGGGTHLTVL , give the reported CD25 Activation, Day 9, PB.
14
